All figures here come from the Biogen ADME set (Fang et al. 2023).

Exercise: state measured intrinsic clearance, rat liver microsomes for each of the compounds provided.

- smi: "O=C1Oc2nc3cc4c(cc3cc2CN1CCN1CCOCC1)OCCO4"
  result: "≤ 0.64 L/h/kg"

Batch lookup, intrinsic clearance, rat liver microsomes per entry.
1. Cc1nc(O)c2c(n1)CN(Cc1ccccc1)CC2
2. N#CCCn1ncnc1-c1cccc(C#N)c1

1. ≤ 0.64 L/h/kg
2. ≤ 0.64 L/h/kg

====

We label by threshold. Values of MDR1-MDCK efflux ratio strictly beneath 4 are rule met. Values of 4 and up are rule not met.

Solved entries (count: 2):
- smi: "Cc1noc(C)c1CC(=O)N1CCc2[nH]c3ccc(Br)cc3c2C1"
  classification: "rule not met"
- smi: "Cc1ccnc(NCc2cccnc2)n1"
  classification: "rule met"

State whether 4 exceeds MDR1-MDCK efflux ratio recorded for `CCCc1cc(N2CCc3c(nc(C(C)C)n3C)C2)n2ncnc2n1` .
rule not met

Does `Cc1ccc(C)c(S(=O)(=O)N2CCCN(C3CCC3)CC2)c1` have MDR1-MDCK efflux ratio strictly under 4?
rule met

Would you kindly verify if MDR1-MDCK efflux ratio of `Cc1ccc(C(=O)O)cc1NS(=O)(=O)c1csc(C(=O)Nc2ccccc2)c1` is strictly less than 4?
rule met

API: query returns whether the molecule falls strictly under 4 in MDR1-MDCK efflux ratio. Query: `CN(C)c1ccc(-c2ccc(COCc3cccs3)cc2)nn1`
rule met

I'd appreciate it if you could check whether `C[n+]1cc2c3c(ccc2c2ccc4cc5c(cc4c21)OCO5)OCO3` has MDR1-MDCK efflux ratio smaller than 4.
rule not met

Field: below-cutoff. Rule: recorded MDR1-MDCK efflux ratio strictly less than 4. Subject: `COc1ccc2nc(C)nc(N3CC(O)(c4ccc(F)cc4)C3)c2c1`
rule met
